targetOrSystem: T1, class I MHC receptor HLA-A2 on T2 cells (human)
T1 construct: detected on the cell surface with a mouse anti-human HLA-A2 monoclonal antibody and goat anti-mouse IgG F(ab')2-FITC; also called HLA-A2 receptor; HLA-A2 class I MHC
protocolDescription: T2 cells, anti-HLA-A2 flow cytometry after brefeldin A; Assay #1; 4 hr
measuredQuantity: fluorescence index (F.I.)
The response must be a number in F.I. with no trailing unit.

binder	fluorescence index (F.I.)
GQGDVMVFV [Filamin B peptide #6]	1.65
LILGLVWTL [Filamin B peptide #1]	3.17

Q: Please supply the value of reported fluorescence index for the item GLAPLEVRV [Filamin B peptide #3]
Result: 4.22

Q: Please supply the value of reported fluorescence index for the item KLILGLVWT [Filamin B peptide #7]
Result: 1.22

Q: Please supply the value of reported fluorescence index for the item SLQESGLKV [Filamin B peptide #4]
Result: 1.43
